Listed here: items and their measured EC50.
System: MT2
test_protocol: Effective concentration against HIV infected MT-2 cell line
Assay type: functional, cell-based
condition_details: Homo sapiens
readout_label: EC50 (nM)

molecule	readout_label	measured_value
CC(C)[C@@H]1NC(=O)CCCCCCCOc2ccc(cc2)C[C@@H]([C@H](O)CN2CC3CCCCC3C[C@H]2C(=O)NC(C)(C)C)NC1=O (stereo partly drawn)	EC50	26
CC(=O)N[C@H](C(=O)N[C@@H](Cc1ccccc1)[C@H](O)CN1CC2CCCCC2C[C@H]1C(=O)NC(C)(C)C)C(C)C (stereo partly drawn)	EC50	29
CC(C)[C@@H]1NC(=O)/C=C\CCCCOc2ccc(cc2)C[C@@H]([C@H](O)CN2CC3CCCCC3C[C@H]2C(=O)NC(C)(C)C)NC1=O (stereo partly drawn)	EC50	31
